# System: NCI-H322M
# TEST_PROTOCOL: Cytotoxicity against human NCI-H322M cells assessed as cell growth at 1 uM after 48 hrs by sulforhodamine B assay relative to control
# Assay type: functional
# MEASUREMENT_SETUP: read-out: Activity
Record form. Attribute: growth at 1 µM. Fill in for each entry.
One number for each entry, in %.

Examples with their reported growth at 1 µM follow.
query: Form field: growth at 1 µM recorded for COc1cc(C(=O)/C=C/c2cc(-c3cc(OC)c(OC)c(OC)c3)n[nH]2)cc(OC)c1OC with NCI-H322M (enter value)
result: 89

query: // same read-out, input: COc1cc2c(cc1OC)C(=O)/C(=C/c1cc(-c3ccc4c(c3)OCO4)n[nH]1)C2
result: 82

query: // same read-out, input: COc1cc(C(=O)/C=C/c2cc(-c3ccc4c(c3)OCO4)n[nH]2)cc(OC)c1OC
result: 84

Now look at this entry.
query: Form field: growth at 1 µM recorded for COc1ccc(C(=O)/C=C/c2cc(-c3cc(OC)c(OC)c(OC)c3)n[nH]2)cc1OC with NCI-H322M (enter value)
result: 83
